System: HeLa
Assay: Cytotoxicity against human HeLa cells assessed as viable cells after 24 hrs by MTT assay
Assay type: functional, cell-based
pIC50: −log10 of the molar value.
measurement-label: pIC50

Form field - read-out: pIC50; system: HeLa; submitted item: COc1c(Br)cc(C/C(=N\OCc2ccccc2)C(=O)NCCCCCNC(=O)/C(Cc2cc(Br)c(OC)c(Br)c2)=N/OCc2ccccc2)cc1Br
< 4.00

So what pIC50 did CO/N=C(\Cc1cc(Br)c(OC)c(Br)c1)C(=O)NCCNCCNC(=O)/C(Cc1cc(Br)c(OC)c(Br)c1)=N/OC get with HeLa?
4.59

# returns recorded pIC50 (system: HeLa) for COc1c(Br)cc(C/C(=N\OCc2ccccc2)C(=O)NCCCNCCCCNCCCNC(=O)/C(Cc2cc(Br)c(OC)c(Br)c2)=N/OCc2ccccc2)cc1Br
5.40

Observed pIC50 on HeLa for CO/N=C(\Cc1cc(Br)c(OC)c(Br)c1)C(=O)NCCCNCCCCNCCCNC(=O)/C(Cc1cc(Br)c(OC)c(Br)c1)=N/OC , please.
4.58

Observed pIC50 on HeLa for CO/N=C(\Cc1cc(Br)c(OC)c(Br)c1)C(=O)NCCCCCNC(=O)/C(Cc1cc(Br)c(OC)c(Br)c1)=N/OC , please.
< 4.00

Find pIC50 (HeLa) for the entry COc1c(Br)cc(C/C(=N\OCc2ccccc2)C(=O)NCCNCCNC(=O)/C(Cc2cc(Br)c(OC)c(Br)c2)=N/OCc2ccccc2)cc1Br
< 4.00

Recorded pIC50 for COc1c(Br)cc(C/C(=N\O)C(=O)NCCCCCNC(=O)/C(Cc2cc(Br)c(OC)c(Br)c2)=N/O)cc1Br with HeLa, please?
< 4.00

Return pIC50 measured with HeLa given this molecule: COc1c(Br)cc(C/C(=N\O)C(=O)NCCNCCNC(=O)/C(Cc2cc(Br)c(OC)c(Br)c2)=N/O)cc1Br
< 4.00

Fill in the recorded pIC50 for this molecule, with HeLa as test system: COc1c(Br)cc(C/C(=N\O)C(=O)NCCCNCCCCNCCCNC(=O)/C(Cc2cc(Br)c(OC)c(Br)c2)=N/O)cc1Br
< 4.00

The reported measurements were obtained from ChEMBL document CHEMBL3774387.
